assay: Protein binding in mouse plasma assessed as unbound fraction after 24 hrs by equilibrium dialysis
Format: ADME, cell-free
observation_type: fraction unbound at 24 h
I'd appreciate a reply containing only the number, no unit.

COc1nn(-c2ccccn2)c2cc(-c3ccc([C@H]4C[C@@H]4C(=O)O)cc3)cc(F)c12 0.0053

Asked: Entry under review: `COc1nn(-c2ccc(C)cc2)c2cc(-c3ccc([C@H]4C[C@@H]4C(=O)O)cc3)cc(F)c12` . Reported fraction unbound at 24 h?
Given back: 0.0011

Asked: Could you share which fraction unbound at 24 h value was measured for `COc1nn(-c2ccccn2)c2cc(-c3ccc([C@H]4C[C@@H]4C(=O)O)cc3)ccc12` ?
Given back: 0.0048

Asked: Look up fraction unbound at 24 h: `Cc1ccc(-n2nc(C)c3cnc(-c4ccc([C@H]5C[C@@H]5C(=O)O)cc4F)cc32)nc1`
Given back: 0.021

Asked: Would you mind telling me what fraction unbound at 24 h value was observed for `Cc1ccc(-n2nc(C)c3ccc(-c4ccc([C@H]5C[C@@H]5C(=O)O)cc4)cc32)cc1` ?
Given back: 0.0049
